Experiment: in vivo
Design: species or system Sprague-Dawley (SD) rats
Conditions: Sprague-Dawley, rat, plasma, po, 60 mg·kg^−1
READOUT KIND: concentration at 2 h
Answers without a unit are incomplete; give the number and then its unit.

// query concentration at 2 h value for entry CC(C)=CCC[C@](C)(O[C@@H]1O[C@H](CO)[C@@H](O)[C@H](O)[C@H]1O)[C@H]1CC[C@]2(C)[C@@H]1[C@H](O)C[C@@H]1[C@@]3(C)CC[C@H](O)C(C)(C)[C@@H]3[C@@H](O[C@@H]3O[C@H](CO)[C@@H](O)[C@H](O)[C@H]3O)C[C@]12C [GRg1, ginsenoside Rg1]
0.21 ng/mL

* * *

Test: in vivo
Design: species or system Sprague-Dawley (SD) rats
Conditions: Sprague-Dawley, rat, plasma, po, 60 mg·kg^−1
READOUT KIND: concentration at 24 h (ng/mL)
Unit ng/mL implied. Number only.

Some compounds with known concentration at 24 h results, for comparison:
{"COMPOUND": "CC(C)=CCC[C@](C)(O[C@@H]1O[C@H](CO)[C@@H](O)[C@H](O)[C@H]1O)[C@H]1CC[C@]2(C)[C@@H]1[C@H](O)C[C@@H]1[C@@]3(C)CC[C@H](O)C(C)(C)[C@@H]3[C@@H](O[C@@H]3O[C@H](CO)[C@@H](O)[C@H](O)[C@H]3O[C@@H]3OC[C@@H](O)[C@H](O)[C@H]3O)C[C@]12C [NGR1, notoginsenoside R1]", "VALUE REPORTED": 0.14}
{"COMPOUND": "CC(C)=CCC[C@](C)(O[C@@H]1O[C@H](CO[C@@H]2O[C@H](CO)[C@@H](O)[C@H](O)[C@H]2O)[C@@H](O)[C@H](O)[C@H]1O)[C@H]1CC[C@]2(C)[C@@H]1[C@H](O)C[C@@H]1[C@@]3(C)CC[C@H](O[C@@H]4O[C@H](CO)[C@@H](O)[C@H](O)[C@H]4O[C@@H]4O[C@H](CO)[C@@H](O)[C@H](O)[C@H]4O)C(C)(C)[C@@H]3CC[C@]12C [GRb1, ginsenoside Rb1]", "VALUE REPORTED": 19.2}
{"COMPOUND": "CC(C)=CCC[C@](C)(O[C@@H]1O[C@H](CO)[C@@H](O)[C@H](O)[C@H]1O)[C@H]1CC[C@]2(C)[C@@H]1[C@H](O)C[C@@H]1[C@@]3(C)CC[C@H](O[C@@H]4O[C@H](CO)[C@@H](O)[C@H](O)[C@H]4O[C@@H]4O[C@H](CO)[C@@H](O)[C@H](O)[C@H]4O)C(C)(C)[C@@H]3CC[C@]12C [GRd, ginsenoside Rd]", "VALUE REPORTED": 3.57}

Now look at this entry.
// query concentration at 24 h value for entry CC(C)=CCC[C@](C)(O[C@@H]1O[C@H](CO)[C@@H](O)[C@H](O)[C@H]1O)[C@H]1CC[C@]2(C)[C@@H]1[C@H](O)C[C@@H]1[C@@]3(C)CC[C@H](O)C(C)(C)[C@@H]3[C@@H](O[C@@H]3O[C@H](CO)[C@@H](O)[C@H](O)[C@H]3O)C[C@]12C [GRg1, ginsenoside Rg1]
0.22

* * *

Target: CYP1A2 (Rattus norvegicus)
Sequence (P04799 whole entry): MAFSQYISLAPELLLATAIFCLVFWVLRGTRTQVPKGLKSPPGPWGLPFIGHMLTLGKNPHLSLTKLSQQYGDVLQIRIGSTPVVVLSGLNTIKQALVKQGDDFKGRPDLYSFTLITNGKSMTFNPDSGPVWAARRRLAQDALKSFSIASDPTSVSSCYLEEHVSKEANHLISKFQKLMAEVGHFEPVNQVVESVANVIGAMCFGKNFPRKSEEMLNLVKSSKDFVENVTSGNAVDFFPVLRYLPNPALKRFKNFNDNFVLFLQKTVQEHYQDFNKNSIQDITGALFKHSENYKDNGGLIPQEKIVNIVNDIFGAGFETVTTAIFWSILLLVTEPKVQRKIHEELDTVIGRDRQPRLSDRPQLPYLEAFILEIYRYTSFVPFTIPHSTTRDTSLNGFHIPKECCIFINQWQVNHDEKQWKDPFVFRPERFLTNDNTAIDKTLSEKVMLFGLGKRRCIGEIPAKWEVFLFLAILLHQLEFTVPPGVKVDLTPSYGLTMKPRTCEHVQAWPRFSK
Assay: In vitro cocktail CYP450 activity assay in rat liver microsomes, CYP1A2 (phenacetin probe)
Settings: Tested IC50
Experimental: (OHBUP-[D6]) and 5 nM 4′-hydroxydiclofenac-[^13C6] (OHDIC-[^13C6]) as internal standards (ISs). […] standard addition experiments. Each group included four concentration levels. For the PK […] The probe compounds, viz. […] chosen after incubating all the recruited substrates. In order to assure the linear relationship […] The incubation system was also optimized in terms of substrate concentrations. The substrates concentrations of […]
READOUT KIND: IC50

// query IC50 value for entry Cc1nc2c([nH]1)c(=O)n(C)c(=O)n2Cc1ccco1
597 nM
